System: DU-145 prostate
Test: NCI-60 one-dose screen, 48 h
Conditions: 10 µM unless noted
Protocol: Cells are grown in 96 well plates and exposed to the test compound for 48 hours. Compounds are tested at a single concentration, which is 10^-5 M for most compounds. The reported endpoint is percent growth (GI% or GIPRCNT), where numbers from 0 - 100% represent growth inhibition, and numbers from -100% - 0 represent cell death. For example, a value of 40 represents 60% growth inhibition. A value of 0 means no net growth occurred over the course of the experiment. […]
The panel holds about 83,000 compounds, 20% with a hit somewhere; the sample as a whole holds those more often. Calls of active or inactive are those of the source. How the source made its calls: active means growth percent below 10; inactive means the rest.
// one of y (active), n (inactive), no free text

Could you kindly confirm the outcome this assay logged for COc1cc(/C=C/C(=O)c2cccc(-n3cc(-c4ccc(Cl)cc4)[nH]c3=O)c2)cc(OC)c1OC ?
n

Field entry: O=C1Nc2ccccc2SC1C1SC(=S)N(Cc2ccccc2)C1=O (stereo not given)
y

Let us now turn to CCOC(=O)Cc1csc2nc(-c3ccccc3)nn12
n

Next compound up: Cc1c(Cl)cccc1NS(=O)(=O)c1ccccc1
n

Here is the next compound: C=C1C(=O)O[C@H]2[C@H]1CC/C(COC(=O)/C=C\C(=O)NCc1ccc(Cn3c(=O)sn(CCCI)c3=O)cc1)=C\CC[C@@]1(C)O[C@@H]21
y

# repeat for COc1ccc(/C=C(\C#N)n2nnc3cc(F)c(F)cc32)c(OC)c1OC
n

Please do the same for O=C(NCc1cccnc1)c1cc(-c2csc3c(=O)cc(N4CCOCC4)oc23)cc2c1OCCO2 as well.
n

Entry to check: Clc1ccc(-c2nnc(Cn3ccnc3)o2)cc1
n

Next record, please: Cc1cc(=O)[nH]c(N/N=C/c2cc(Br)ccc2O)n1
n

Field entry: O=C(Nc1ccccc1)c1sc(-c2cccc(C(F)(F)F)c2)cc1O
n

---

Tested on: SF-295 CNS
Assay: NCI-60 one-dose screen, 48 h (100 = growth as untreated, 0 = no growth, -100 = all killed)
Settings: 10 µM unless noted
Protocol: Cells are grown in 96 well plates and exposed to the test compound for 48 hours. Compounds are tested at a single concentration, which is 10^-5 M for most compounds. The reported endpoint is percent growth (GI% or GIPRCNT), where numbers from 0 - 100% represent growth inhibition, and numbers from -100% - 0 represent cell death. For example, a value of 40 represents 60% growth inhibition. A value of 0 means no net growth occurred over the course of the experiment. […]
About 83,000 compounds went through this panel and 20% of them were active in at least one assay; those are over-represented in the sample as a whole.
For each entry below, report its growth value.
Number in %, nothing else.

Return reported growth; argument: C[C@]12CCC(=O)C[C@H]1CC[C@@H]1[C@@H]2CC[C@@]2(C)[C@H]1CC[C@]2(O)C(=O)CO
113

Same read-out for Cn1ncc2c(Nc3ccc(Br)cc3)nc(Nc3ccc(Br)cc3)nc21 ?
40.2

Field entry: CN(C)CN1CCN(c2ccc3nc(-c4ccc5nc(-c6ccc(C(F)(F)F)cc6)[nH]c5c4)[nH]c3c2)CC1
60.7

Now give it for O=[N+]([O-])c1ccc(-c2cc3c(Nc4ccc(Sc5nc6ccccc6s5)c(Cl)c4)ncnc3s2)cc1 too.
23.2
